Biological target: recombinant guanylate cyclase reporter cell line (Rattus norvegicus, UniProt P20595)
Sequence (P20595 1-619): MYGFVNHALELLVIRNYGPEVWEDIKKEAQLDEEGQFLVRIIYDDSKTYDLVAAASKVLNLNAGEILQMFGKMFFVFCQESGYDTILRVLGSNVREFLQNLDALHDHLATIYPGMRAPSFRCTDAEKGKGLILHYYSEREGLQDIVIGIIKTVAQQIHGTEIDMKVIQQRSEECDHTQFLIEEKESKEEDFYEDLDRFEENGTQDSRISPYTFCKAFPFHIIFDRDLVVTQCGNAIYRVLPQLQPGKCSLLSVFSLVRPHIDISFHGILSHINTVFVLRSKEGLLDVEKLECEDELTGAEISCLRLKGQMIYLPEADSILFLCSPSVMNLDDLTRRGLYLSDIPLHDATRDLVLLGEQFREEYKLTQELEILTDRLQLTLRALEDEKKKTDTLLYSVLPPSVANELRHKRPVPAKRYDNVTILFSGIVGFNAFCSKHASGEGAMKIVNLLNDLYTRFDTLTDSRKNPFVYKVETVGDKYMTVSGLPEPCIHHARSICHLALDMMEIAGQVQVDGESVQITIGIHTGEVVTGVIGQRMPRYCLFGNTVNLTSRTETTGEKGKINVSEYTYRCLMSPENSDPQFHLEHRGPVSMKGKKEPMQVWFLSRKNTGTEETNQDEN
Sequence (P19686 1-690 partner): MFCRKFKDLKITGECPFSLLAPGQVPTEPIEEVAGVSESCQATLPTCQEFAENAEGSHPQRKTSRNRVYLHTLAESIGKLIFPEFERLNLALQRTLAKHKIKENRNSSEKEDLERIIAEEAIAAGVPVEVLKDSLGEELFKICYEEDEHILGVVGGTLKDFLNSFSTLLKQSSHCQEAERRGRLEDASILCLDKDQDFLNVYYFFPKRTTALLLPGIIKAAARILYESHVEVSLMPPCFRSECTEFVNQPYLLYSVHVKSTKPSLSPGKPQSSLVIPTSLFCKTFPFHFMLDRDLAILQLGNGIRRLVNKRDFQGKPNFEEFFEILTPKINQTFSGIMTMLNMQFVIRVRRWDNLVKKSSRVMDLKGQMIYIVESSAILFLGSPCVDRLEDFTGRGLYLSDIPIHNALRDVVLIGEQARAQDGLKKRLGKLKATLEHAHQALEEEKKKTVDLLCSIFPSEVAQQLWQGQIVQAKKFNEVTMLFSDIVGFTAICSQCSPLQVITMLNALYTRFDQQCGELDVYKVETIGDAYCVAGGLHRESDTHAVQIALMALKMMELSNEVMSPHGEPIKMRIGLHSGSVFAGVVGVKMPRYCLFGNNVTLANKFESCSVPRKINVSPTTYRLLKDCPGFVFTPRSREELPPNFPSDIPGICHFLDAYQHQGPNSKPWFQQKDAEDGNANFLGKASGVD
Assay: Effect on a recombinant guanylate cyclase reporter cell line
Details: half maximal effective concentration; in some cases mean values from individual determinations
pEC50: −log10 of the molar value. Where a name gives a salt, the structure may show the parent alone.
Measure name: pEC50

>  <Molecule>
CCNC(=O)N1CCN(c2ccc(-c3ccc(Cl)cc3N3CCCC(n4ncc(C(=O)O)c4C(F)(F)F)C3)cc2)CC1 (single isomer, unassigned)

>  <Recorded number>
7.55

$$$$
>  <Molecule>
O=C(O)c1cnn(C2CCCN(c3cc(Cl)ccc3-c3ccc(N4CCN(C(=O)C5CCC5)CC4)cc3)C2)c1C(F)(F)F (single isomer, unassigned) [Example 49, hydrochloride]

>  <Recorded number>
8.46

$$$$
>  <Molecule>
COCCC(=O)N1CCN(c2ccc(-c3ccc(Cl)cc3N3CCCC(n4ncc(C(=O)O)c4C(F)(F)F)C3)cc2)CC1 (single isomer, unassigned)

>  <Recorded number>
7.36

$$$$
